Measured on: P3-9
Test method notes: BLI
pKd: −log10 of the molar value. Ends that are not written are not given here.
Measurement type: pKd

>  <Binder>
NPDPNANPNVDPNAN (also: biotinylated, position not given here) [Biotinylated junctional peptide Pep21 (PfCSP peptide 21)]

>  <Measurement type>
pKd

>  <Experimental result>
7.66

$$$$
